Would you mind telling me the reported melting point of each entry?

I would be grateful if you could share the reported melting point for Cc1c(C(O)Cc2ccccc2)cc(I)[nH]c1=O (stereo unspecified) . 166 to 167 °C

What about COc1cc(N)c(Cl)cc1C(=O)N[C@H]1CCN(CCNC(=O)c2ccc(F)cc2)C[C@H]1OC (relative stereo) ? 209 °C

Same for "CNC(=O)c1cccc(NC(=O)Cc2cccc(Cl)c2)c1" 165 to 166 °C

Moving on to the next compound: "CCCc1nc(S(=O)(=O)N(c2c(Cl)cccc2Cl)S(=O)(=O)c2nc(CCC)n(-c3ccccc3)n2)nn1-c1ccccc1" 262 to 264 °C

Please give the result for CC(CC#N)CN1C(=O)c2ccccc2S1(=O)=O (stereo unspecified) too. 83 to 84 °C

Could you do the same for CCC1OCCn2c1nc(C(=O)NCc1ccc(F)cc1-n1ncnc1C)c(OCc1ccccc1)c2=O (stereo unspecified) , please? 163 °C

Now the same for "CC(C)OC(=O)c1ccc2c(c1)ncn2-c1cccc(N2CCN(C)CC2)c1" 173 to 174 °C

Same question, "CCCCCCN(Cc1ccccc1)c1c(N[C@@H](Cc2ccccc2)C(=O)O)c(=O)c1=O" this time 61 to 65 °C

Next up: "CN(C)CCSc1sc(-c2cc[nH]n2)c2c1C(=O)CC(C)(C)C2" 212 to 214 °C

Ok, now CCOC(=O)CC1SC(c2cc(C(C)(C)C)c(O)c(C(C)(C)C)c2)N(CCCBr)C1=O (stereo unspecified) 154 to 155 °C

Okay, and "CN1CCCCC1=C1C(=O)N(c2cccc(Cl)c2)c2ccccc21" ? 162 to 165 °C

Same again, this time with "CC(=NO)c1ccnc(N(C)C)c1" 145 to 148 °C

Do the same for "Cc1nc2cc(C#N)ccc2n1-c1ccc(C(=O)N(C)[C@@H]2CCNC2)cc1" please 178 to 180 °C

Entry to check: "O=c1cc2c(n[nH]1)-c1ccc(O)cc1CC2" 300 °C

Query "CCNC(=O)ON1C(=O)CCC1=O" next 131 to 133 °C

Okay, and "CN1CCC(c2cc3cccc(O)c3o2)CC1" ? 144 to 146 °C

Same for "CCOC(=O)c1c(Cl)c2cc(Cl)cnc2[nH]c1=O" 228 °C

Then this compound: CC(=Cc1ccc(O)cc1)c1ccc2c(c1)C(C)(C)C(O)C2(C)C (stereo unspecified) 148 to 149 °C

// same read-out, input: CC(C)OC(=O)C(C)Oc1ccc(COc2ccc(Cl)cc2)cc1 (stereo unspecified) 81 °C

For CN(C)[C@H]1CCC[C@H]1C(=O)O (relative stereo) then? 82 to 84 °C

Same lookup for "Cc1cccc2nc3c(=O)[nH][nH]c(=O)c3c(O)c12" , please. 167 to 168 °C

Entry "COc1ccc(-n2nc(OC)cc2-c2ccc(OCCNC(N)=S)cc2)cc1" please 142 °C

Let us now turn to "O=C(NCC12CC3CC(CC(C3)C1)C2)c1cc(-c2ncccc2C(=O)O)ccc1Cl" 169 to 172 °C

Record: "Nc1ccc(SC(F)(F)F)cc1[N+](=O)[O-]" 86 °C

Can you check "O=c1c2cc(Oc3ccc(Cl)cc3)ccc2nnn1Cc1cccnc1" next? 134 to 136 °C

Quick one: "CCCc1c(C(=O)OCC)nc2c(CCC)c3oc(C(=O)OCC)cc(=O)c3cc2c1Cl" 145 to 147 °C

Likewise for O=C(NCc1ccc(Cl)cc1)c1cn2c3c(cc(CN4CCOCC4)cc3c1=O)OC(c1ccc(O)cc1)C2 (stereo unspecified) ? > 260 °C

Consider next the compound "CCCCC(=O)c1ccc(O)c(Cl)c1Cl" in the same way. 107 to 110 °C

Please answer likewise for Cc1ccc2c(c1)c1c(n2C)CC(C(=O)O)CC1 (stereo unspecified) 84 to 85 °C

Consider next the compound "Oc1ccccc1-c1cc(-c2ccc3c(c2)OCO3)cc(-c2ccsc2)n1" in the same way. 120 to 121 °C

Likewise for CCN1C(=O)NCC1c1ccc(OC)c(OC2CC3CCC2C3)c1 (stereo unspecified) ? 149 to 153 °C

Thanks! And "COc1ccc2c(c1C=O)Nc1ccccc1S2" ? 155 to 160 °C

Note, next up: "Cn1cc(C(=O)NCc2ccc(Cl)cc2)c(=O)c2cccc(C#CCO)c21" 228 to 230 °C

Next compound up: "COCCOC/C(=C\S(=O)(=O)c1ccc(C)cc1)C(=O)OC(C)(C)C" 40 to 41 °C

Query O=C1c2cccc(-c3ccccc3)c2C(=O)C1c1ccccc1 (stereo unspecified) next 166 to 168 °C

For O=C(OCC1=CC(O)C2C=COC(OC3OC(CO)C(O)C(O)C3O)C12)c1ccc(O)cc1 (stereo unspecified) then? 148 to 150 °C

Next: "C#Cc1ccc(OC)c(C#N)c1" 100 to 101 °C

# repeat for "Cc1cc2nc(Cl)c3cccnc3n2n1" 202 °C

Then "COc1ccc(C)cc1NC(=O)Nc1ccc(N2CCN(C(=O)Nc3ccc(OCCO)cc3C)CC2)nc1" ? 189 to 190 °C

Cool, now O=c1c2ccccc2c(Br)cn1C1CN2CCC1CC2 (racemic) 208 to 209 °C

Follow-up entry: "Nc1ccc(Sc2cc(I)nc(I)c2)cc1" 175 to 176 °C

----------
Would you mind telling me the reported melting point of each entry?

Requested field: melting point. Item: "O=C(O)CCc1cc2c(Cl)c(Cl)ccc2n1S(=O)(=O)c1ccccc1" 220 °C

# repeat for "Cc1nc2cc(C#N)ccc2s1" 158 to 160 °C

For O=C(NCCCN1CCC(c2ccccn2)CC1)N1C(=O)OCC1c1ccc(F)c(F)c1 (centres undefined) then? 142 to 144 °C

How about "COc1cc(C(F)(F)F)nn1-c1ccc(NC(=O)c2ccncc2F)cc1" ? 160 to 161 °C

What do we get for "CN1C(=O)CCC(C)(C)c2cc(Nc3ncc(Cl)c(N[C@H]4[C@@H](C(N)=O)[C@@H]5C=C[C@H]4C5)n3)ccc21" ? 233 °C

What about COc1cc(I)c(C(=O)OC(C)COC(=O)c2ccc3c(c2I)OCO3)cc1OC (centres undefined) ? 131 to 133 °C

Another: CC(C)OC(=O)N1c2cncnc2NC(=S)C1C (racemic) 203 to 204 °C

Also "CC(C)(C)OC(=O)Nc1ccc(C#Cc2ccc(OC(F)(F)F)cc2)cc1N" , if possible. 167 to 169 °C

Let us now turn to "CN1CCN(C(=NNS(=O)(=O)c2ccccc2)c2ccc(Cl)cc2Cl)CC1" 174 to 176 °C

----------
Record form. Attribute: melting point. Fill in for each entry.

// melting point lookup, key: COc1ccc(C2COc3c(ccc(O)c3C)C2)cc1OC (centres undefined) 125 to 127 °C

Now the compound "O=C(Nc1nc(-c2ccco2)c(C(=O)C2CCCC2)s1)c1ccncc1" 168 to 181 °C

Would you kindly repeat that for "CCc1nccn2c(-c3ccnc(NCC(C)(C)O)n3)c(-c3ccc(F)cc3F)nc12" ? 164 to 165 °C

Continue with CC1(C)NC(=O)C2CN(CCCC(c3ccc(F)cc3)c3ccc(F)cc3)CCN21 (centres undefined) 148 °C

Also "CN(C)C=C1CN=Cc2ccccc2C1=O" , if possible. 131 to 133 °C

Would you kindly repeat that for "CCCCCCCCON1C(C)(C)CC(OC(=O)COc2ccc(-c3nc(-c4ccc(C)cc4C)nc(-c4ccc(C)cc4C)n3)c(O)c2)CC1(C)C" ? 86 to 90 °C

Also need COc1ccc(C2=NN(c3ccccc3)C(c3ccc([N+](=O)[O-])cc3)C2)cc1 (centres undefined) , thanks. 168 to 173 °C

Repeat with O=C(O)CN1CCCC(n2nc(-c3c(-c4ccccc4)nn4ccccc34)ccc2=O)C1=O (centres undefined) 145 to 150 °C

Param item: COc1cc(N)c(Cl)cc1C(=O)NC1CCN(C(C)CC(C(=O)N(C)C)(c2ccccc2)c2ccccc2)CC1OC (centres undefined) 198 °C

Request: COc1ccc(Cl)cc1C1(O)C(=O)Nc2ccc(Br)cc21 (centres undefined) 245 to 247 °C

Now consider "CCn1cc(-c2ccccc2)c(=O)c(-c2ccccc2)n1" . 124 to 125 °C

What do we get for "N#CC=C(N)c1cccs1" ? 50 to 54 °C

Would you mind doing "C=CCn1c(C(F)(F)F)nc2cc(-n3c(=O)cc(C(F)(F)F)n(C)c3=O)ccc21" as well? 185 to 187 °C

Thanks! And "C=Cc1c(N)cc(Cl)nc1C(=O)OC" ? 53 to 54 °C

Another: CC(C)(C)OC(=O)N1CCC2(Cc3ccc(C#N)cc3)C(=O)N(c3cc(Cl)nc(Cl)c3)C(=O)N12 (centres undefined) 179 °C

Now the same for C=COC(=O)N1C[C@@H]2C(=O)CCC(c3cccc(F)c3)(c3cccc(F)c3)[C@@H]2C1 (racemic) 152 °C

What about O=c1oc2cc(OCc3nnn[nH]3)cc(OCc3nnn[nH]3)c2c2c1CC(c1ccccc1)CC2 (centres undefined) ? 235 to 245 °C

Now consider "O=C(Nc1ccccc1N1CCc2ccccc21)C1CC1" and answer again. 83 to 85 °C

And what about the compound "O=C(O)c1ccc(-c2cccc([N+](=O)[O-])c2)[nH]c1=O" ? 303 to 304 °C
